The measured values listed here are drawn from PubChem BioAssay (NCI).

- Test system: DU-145 prostate
- Assay Explanation: NCI tumour cell line growth inhibition, 48 h; in the data active means GI50 below about 0.43 µM; inactive means the rest
A correct response names exactly one class from 1.0 (active), 0.0 (inactive)

Tell me the assay call for CN(Cc1cnc2nc(N)nc(N)c2n1)c1c(Cl)cc(C(=O)NC(CCC(=O)O)C(=O)O)cc1Cl (centres undefined) please. 1.0

Given C=C(CN1CCN(c2ccccn2)CC1)c1ccc(C(=O)Nc2ccccc2N)cc1 , state the outcome it received in this test. 0.0

Which outcome did this test record for the compound COC(=O)N[C@@H](C)CNc1nccc(-c2cn(C(C)C)nc2-c2cc(Cl)cc(NS(C)(=O)=O)c2F)n1 ? 0.0

I'd appreciate the recorded outcome for Cn1cc(-c2csc(-c3ccc(Cl)cc3)n2)c2cccnc21 from this test. 0.0

Check the results log: what was the call for CC(=O)c1nc(-c2ccc(C[C@@H](CNC(=O)CN(C)C)NC(=O)c3ccc(OC(C)C)c(Cl)c3)cc2)cn1C ? 1.0

Hello, I am checking results. What call was entered for COc1cc(C2CC(c3ccc(Cl)cc3)=NN2C(C)=O)ccc1Oc1ccnc2cc(Cl)ccc12 (centres undefined) ? 0.0

Answer briefly: the call reported for C/C(=N\NC(=S)N1CCCC1)c1ccccn1 in this assay. 1.0

Which outcome was assigned to COc1ccc(C(=O)Cn2c(C(=O)c3ccc(Cl)cc3)nc(-c3ccccc3)c2-c2ccccc2)cc1 in this test? 0.0

Check the results log: what was the call for CCCC(=O)Nc1cc(/C=C/C(=O)N2C[C@@H]3C[C@]34C2=CC(=O)c2[nH]cc(C)c24)n(C)c1 ? 1.0
